Measured values drawn from ChEMBL document CHEMBL1140770 for this set.

Please provide measured GI50 for the entries that follow.
- System: MCF7
- test-summary: Cytostatic activity against human MCF7 cells by SRB assay
- Assay type: functional
Dear colleague, please return just the value in µM, with no unit written.

Input: Quick one: GI50 of C=C1C[C@H]2[C@@H](CC[C@H]3Cc4nc5c(nc4C[C@@]32C)C[C@@H]2CC[C@H]3C4=C[C@@H]6O[C@H](CC[C@H](C)CO)[C@@H](C)[C@@H]6[C@@]4(C)[C@H](O)C[C@@H]3[C@@]2(C)C5)C2=C[C@@H]3O[C@H](CC[C@H](C)CO)[C@@H](C)[C@@H]3[C@@]12C ?
Output: 5

Input: Quick one: GI50 of C[C@H](CO)CC[C@H]1O[C@H]2C=C3[C@@H]4CC[C@H]5Cc6nc7c(nc6C[C@]5(C)[C@H]4C[C@@H](O)[C@]3(C)[C@H]2[C@@H]1C)C[C@@H]1CC[C@H]2C3=C[C@@H]4O[C@H](CC[C@H](C)CO)[C@@H](C)[C@@H]4[C@@]3(C)C3(C[C@@H]2[C@@]1(C)C7)OCCO3 ?
Output: 8.2
